Where do the numbers come from? From the supplement of paper PMC6555819.

- Tested on: PPARg:RXRa 90nM:30nM, anti-RXR (NR concentration 90 nM, RXRa partner concentration 30 nM)
- TEST_METHOD_NOTES: PBM binding z-score (relative to random genomic background probes); higher = stronger binding; sequences stand for … in GC…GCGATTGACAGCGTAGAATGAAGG
VALUE_KIND: PBM binding z-score
Give a plain numeric answer without units written out.

In: Using the record for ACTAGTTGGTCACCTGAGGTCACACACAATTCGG , report its PBM binding z-score.
Out: 2.1

In: Using the record for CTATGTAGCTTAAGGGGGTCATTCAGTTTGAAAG , report its PBM binding z-score.
Out: 3.67

In: Using the record for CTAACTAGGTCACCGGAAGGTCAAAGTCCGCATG , report its PBM binding z-score.
Out: 7.67

In: Using the record for CCTACTGGGCCAAAGGTCCTTGATTCCAATGCTC , report its PBM binding z-score.
Out: 8.91

In: Using the record for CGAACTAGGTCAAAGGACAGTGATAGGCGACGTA , report its PBM binding z-score.
Out: 9.35

In: Using the record for AATACAGGATCACTAGGCCAGAGTAGGTACGAAT , report its PBM binding z-score.
Out: 0.869

In: Using the record for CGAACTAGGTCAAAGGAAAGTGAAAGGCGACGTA , report its PBM binding z-score.
Out: 7.13

In: Using the record for TCTAGTTGGTCAAAGGTCAAACACTCGAAATGCG , report its PBM binding z-score.
Out: 11

In: Using the record for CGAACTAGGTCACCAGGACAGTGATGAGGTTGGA , report its PBM binding z-score.
Out: 6.58

In: Using the record for TCGAGTAGGTTACGGGTGCATTCAGGGATGAAGA , report its PBM binding z-score.
Out: 2.23

In: Using the record for CGAACTAGGTCACCAGGACAGTCAAGAGGTTGGA , report its PBM binding z-score.
Out: 6.37

In: Using the record for AATACAGGGTCACTTGGCCAGAGTAGGTACGAAT , report its PBM binding z-score.
Out: 4.19

In: Using the record for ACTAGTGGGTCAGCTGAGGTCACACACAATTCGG , report its PBM binding z-score.
Out: 4.86

In: Using the record for CTATGTAGGTTAAGGGGCTCATTCAGTTTGAAAG , report its PBM binding z-score.
Out: 6.73

In: Using the record for CGTCAAAGTTCAACTAAGGTAACGTATAGCACGC , report its PBM binding z-score.
Out: 4.48

In: Using the record for CCGAGTAGGTTACGAGGTGGCATTCAGTGCGAAT , report its PBM binding z-score.
Out: 1.16

In: Using the record for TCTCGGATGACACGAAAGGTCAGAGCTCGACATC , report its PBM binding z-score.
Out: 2.72

In: Using the record for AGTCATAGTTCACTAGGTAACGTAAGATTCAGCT , report its PBM binding z-score.
Out: 2.88

In: Using the record for ATATGTAGGTTAGGGTCTTTCAGAAAGTAGGGAA , report its PBM binding z-score.
Out: 3.03

In: Using the record for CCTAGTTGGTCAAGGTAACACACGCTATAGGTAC , report its PBM binding z-score.
Out: 0.891

In: Using the record for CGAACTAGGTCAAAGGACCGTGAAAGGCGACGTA , report its PBM binding z-score.
Out: 7.29

In: Using the record for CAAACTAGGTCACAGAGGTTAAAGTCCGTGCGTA , report its PBM binding z-score.
Out: 7.56

In: Using the record for TCGACTAGGTTACGGGGGCATTCAGGGATGAAGA , report its PBM binding z-score.
Out: 5.76

In: Using the record for CAATGTAGGTTAAGGGGGTCATTCAGTTTGAAAG , report its PBM binding z-score.
Out: 8.44

In: Using the record for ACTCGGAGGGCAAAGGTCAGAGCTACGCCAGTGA , report its PBM binding z-score.
Out: 9.51

In: Using the record for CGAACTAGGTCACCAGGACAGTGCAGAGGTTGGA , report its PBM binding z-score.
Out: 6.44
